Test system: virus pool selected to 5000 nM inhibitor
METHOD: TZM infection assay, inhibitor-selected resistant virus pools
Assay type: cell-based, HIV-1
CONDITION SUMMARY: Human immunodeficiency virus 1, read-out: EC50 Viral culture (5000 nM)
OUTCOME MEASURE: EC50

{"COMPOUND": "CC(C)CN(C[C@@H](O)[C@H](Cc1ccccc1)NC(=O)O[C@H]1CO[C@H]2OCC[C@H]21)S(=O)(=O)c1ccc(N)cc1 [DRV, Darunavir, reference compound]", "REPORTED VALUE": "> 100 µM"}
